TESTED_SYSTEM: Excitatory amino acid transporter 1 (Homo sapiens)
Sequence (P43003 whole entry): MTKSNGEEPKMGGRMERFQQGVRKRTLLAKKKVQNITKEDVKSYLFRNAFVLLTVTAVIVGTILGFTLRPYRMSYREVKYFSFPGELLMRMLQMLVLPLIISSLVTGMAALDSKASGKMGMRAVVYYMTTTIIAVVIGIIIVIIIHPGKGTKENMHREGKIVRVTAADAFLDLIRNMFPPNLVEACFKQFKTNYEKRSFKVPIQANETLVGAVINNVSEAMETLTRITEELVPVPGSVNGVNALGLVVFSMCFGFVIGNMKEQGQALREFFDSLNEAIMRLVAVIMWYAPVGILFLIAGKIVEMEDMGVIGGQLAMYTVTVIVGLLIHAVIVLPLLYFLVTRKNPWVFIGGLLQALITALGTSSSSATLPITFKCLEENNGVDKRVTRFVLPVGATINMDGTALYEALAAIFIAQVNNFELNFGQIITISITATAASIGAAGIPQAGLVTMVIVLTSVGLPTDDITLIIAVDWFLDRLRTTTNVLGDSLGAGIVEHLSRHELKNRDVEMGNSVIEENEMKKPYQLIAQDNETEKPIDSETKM
Each entry below carries its recorded IC50.
Numeric only. Scale: nM

{"COMPOUND_STRUCTURE": "N[C@@H](CC(=O)Nc1ccc2c(c1)Cc1cc(C(F)(F)F)ccc1-2)C(=O)O", "UNIT_ABBREV": "nM", "IC50": 3430}

Request: State the recorded IC50 for this entry: Cc1ccccc1-c1ccc(NC(=O)C[C@H](N)C(=O)O)cc1
Response: 1970
